- TEST NAME: HepG2 cell viability effects, profiling panel, calcein-AM fluorescence, 48 h, basal (AID 1164); further: test concentration not given here
- TEST SETTINGS: higher = more signal
Binary classification by z-score, with 0.3 as an inclusive lower bound for t; all other cases are f.

Consider the following illustrative entries.
{"MOLECULE": "NC(=O)N1C(=O)C2C(C1=O)C1C=C(CCCO)C2C(c2cccs2)N1Cc1cc2c(cc1Br)OCO2 (stereo unspecified)", "DISCRETE LABEL": "t"}
{"MOLECULE": "O=C1O[C@@H](c2ccccc2)[C@@H](c2ccccc2)N2[C@@H](c3ccccc3OCCO)[C@]3(C(=O)Nc4ccccc43)[C@@H](C(=O)NC[C@H](O)c3ccccc3)[C@H]12", "DISCRETE LABEL": "f"}
{"MOLECULE": "CN1C(=O)C2C=CC(C(O)Cc3ccccc3)N(N(c3ccccc3)c3ccccc3)C2C1=O (stereo unspecified)", "DISCRETE LABEL": "t"}
{"MOLECULE": "C=C(C(=O)CC[C@H](OC(C)=O)c1cccc(OCCO)c1)C(C)C", "DISCRETE LABEL": "f"}
{"MOLECULE": "COC(=O)[C@H](Cc1ccccc1)N1CC(/C=C/C2CC2)=C[C@@H]1[C@@H](O)Cc1ccccc1", "DISCRETE LABEL": "t"}
{"MOLECULE": "CCOC(=O)C[C@H]1[C@H](OC(=O)c2ccc(C(=O)c3ccccc3)cc2)[C@@H](NC(=O)c2ccc3ccccc3c2)c2cc(OCCCO)ccc2N1C(=O)c1ccccc1", "DISCRETE LABEL": "f"}
{"MOLECULE": "C=C(/C(=C/C[C@@H](OC(=O)c1ccncc1)c1ccccc1OCCO)c1cc(C(=O)OC)ccc1OC)C(C)C", "DISCRETE LABEL": "t"}
{"MOLECULE": "CC(C)CN1C(=O)[C@@]2(Cc3ccccc31)c1ccccc1C(=O)N(Cc1ccccc1C(F)(F)F)[C@H]2c1ccc(CO)cc1", "DISCRETE LABEL": "t"}
{"MOLECULE": "CC=CC(O)C1C=CC2C(=O)N(c3ccccc3)C(=O)C2N1Nc1ccccc1 (stereo unspecified)", "DISCRETE LABEL": "t"}
{"MOLECULE": "CO[C@H]1O[C@H](CO)[C@@H](OC(=O)Nc2ccccc2-c2ccccc2)[C@H](OC(=O)Nc2ccc3c(c2)OCO3)[C@@H]1OC(=O)Nc1ccc2c(c1)OCO2", "DISCRETE LABEL": "f"}

## Task Is it the case that `COCCOC(=O)N1C(=O)[C@@]2(c3ccccc31)[C@H](c1ccc(OCCO)cc1)N1[C@H](c3ccccc3)[C@H](c3ccccc3)OC(=O)[C@H]1[C@@H]2C(=O)Nc1nc2ccccc2s1` has z-score reaching or exceeding 0.3?
## Result f

## Task Is it the case that `C[C@]1(C(=O)NCCN2CCOCC2)c2ccccc2C(=O)N(Cc2ccc(OC(F)(F)F)cc2)[C@H]1c1ccc(CO)cc1` has z-score reaching or exceeding 0.3?
## Result t

## Task Is it the case that COc1cc2c(cc1O)C(C)N(Cc1cc3c(cc1Br)OCO3)CC2 (stereo unspecified) has z-score reaching or exceeding 0.3?
## Result f

## Task Is it the case that `COCCOC(=O)N1C(=O)[C@@]2(c3cc(C#CC4(O)CCCCCC4)ccc31)[C@H](C(N)=O)[C@H]1C(=O)O[C@H](c3ccccc3)[C@H](c3ccccc3)N1[C@@H]2c1ccc(O)cc1` has z-score reaching or exceeding 0.3?
## Result t

## Task Is it the case that `COC(=O)[C@@]1(Cc2ccccc2)[C@H]2c3cc(C(=O)N4CCCC4)n(Cc4cc(F)cc5c4OCOC5)c3C[C@H]2CN1C(=O)c1ccccc1` has z-score reaching or exceeding 0.3?
## Result f

## Task Is it the case that `CN(C)C(=O)[C@]1(CCC(=O)OC(C)(C)C)N=C(c2ccc(OCCCO)cc2)O[C@@H]1c1ccccc1` has z-score reaching or exceeding 0.3?
## Result t

## Task Is it the case that `Cc1ccc(F)cc1S(=O)(=O)N[C@@H]1CCN(Cc2ccc(OC(C)C)cc2)C1` has z-score reaching or exceeding 0.3?
## Result f

## Task Is it the case that O=C1C2C=CC(C(O)c3cc(C(F)(F)F)cc(C(F)(F)F)c3)N(Nc3ccc([N+](=O)[O-])cc3)C2C(=O)N1c1ccccc1 (stereo unspecified) has z-score reaching or exceeding 0.3?
## Result f

## Task Is it the case that C=CCC(OC(C)=O)[C@@H]1[C@@H](N(Cc2cc3ccccc3o2)C(=O)Cc2ccc(F)cc2)c2cc(OCCCO)ccc2N1C(=O)c1ccc2ccccc2n1 (stereo partly specified) has z-score reaching or exceeding 0.3?
## Result t

###

Listing of entries alongside the reported composite z-score.
- TEST NAME: binders of probe aFGF10 on microarray, primary screen, stem cell growth factor project, biochemical, small-molecule microarray, fluorescence 635/667 (AID 1071);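 further: score merges 667 nm spot intensity and signal to noise from triplicate slides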
- TEST SETTINGS: higher = more signal
Note: the reply should be a number with no unit written.

Worked cases, answers included:
{"COMPOUND STRUCTURE STRING": "[N-]=[N+]=Nc1ccccc1C[C@]1(C(=O)NCc2ccccc2)N=C(c2ccc(OCCCO)cc2)O[C@H]1c1ccccc1", "READING": 0.584}
{"COMPOUND STRUCTURE STRING": "CC(C)(C)OC(=O)CC[C@]1(C(=O)NCCN2CCOCC2)N=C(c2ccc(OCCCO)cc2)O[C@H]1c1ccccc1N=[N+]=[N-]", "READING": 0.606}

## Task I am curious: what composite z-score value has been reported for `COc1cc2c(cc1OC)CN(C(=O)[C@@H]1[C@H]3C(=O)O[C@H](c4ccccc4)[C@H](c4ccccc4)N3[C@H](c3ccccc3OCCO)[C@@]13C(=O)Nc1ccc(C#CC4(O)CCCCCC4)cc13)CC2` ?
## Result 0.201

###

- TEST NAME: anti-His antibody binders, primary screen, artefact control for SMM control protein annotation, biochemical, small-molecule microarray, 635 nm fluorescence (AID 1128);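 further: score merges feature fluorescence with signal-to-noise for each printed compound spot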
- TEST SETTINGS: anti-His Alexa647 antibody binding, higher = more signal
Listing of entries alongside the reported composite z-score.
Note: the reply should be a number with no unit written.

Worked cases, answers included:
{"MOLECULE": "COCCCNC(=O)[C@]1(Cc2ccccc2N=[N+]=[N-])N=C(c2ccc(OCCCO)cc2)O[C@@H]1c1ccccc1N=[N+]=[N-]", "READING": 2.22}
{"MOLECULE": "C=C(/C(=C/C[C@@H](OC(=O)c1ccncc1)c1ccc(OCCO)cc1)c1cc(C(=O)OC)ccc1OC)C(C)C", "READING": 0.217}
{"MOLECULE": "COc1ccc(CCNC(=O)[C@@]2(Sc3ccc(C)cc3)CC(=O)N(Cc3cc(C(F)(F)F)cc(C(F)(F)F)c3)[C@@H]2c2ccc(CO)cc2I)cc1", "READING": -0.361}
{"MOLECULE": "[N-]=[N+]=NCc1ccccc1C[C@]1(C(=O)NCC(O)CO)N=C(c2ccc(OCCCO)cc2)O[C@H]1c1ccccc1CN=[N+]=[N-] (stereo partly drawn)", "READING": 2.73}
{"MOLECULE": "C=C[C@@H](COC(C)=O)NS(=O)(=O)c1ccc(Br)cc1", "READING": 0.188}

## Task I am curious: what composite z-score value has been reported for COC1(C)CN(Cc2ccccc2Br)[C@H](/C=C/c2ccccc2)[C@H](Cc2ccccc2)O1 (stereo partly drawn) ?
## Result 0.258

## Task I am curious: what composite z-score value has been reported for `C=C(COC)/C(=C/C[C@@H](OC(=O)c1ccncc1)c1ccc(OCCO)cc1)c1cnc2ccccc2c1` ?
## Result 0.866

## Task I am curious: what composite z-score value has been reported for `CC(C)CN1C(=O)[C@@]2(c3ccc([N+](=O)[O-])cc3)CC(=O)N(CC34CC5CC(CC(C5)C3)C4)[C@@H]2c2ccc(CO)cc21` ?
## Result 2.34

###

- EXPERIMENTAL TARGET: Follistatin (Homo sapiens) (UniProt P19883)
- Sequence (P19883 whole entry, looked up): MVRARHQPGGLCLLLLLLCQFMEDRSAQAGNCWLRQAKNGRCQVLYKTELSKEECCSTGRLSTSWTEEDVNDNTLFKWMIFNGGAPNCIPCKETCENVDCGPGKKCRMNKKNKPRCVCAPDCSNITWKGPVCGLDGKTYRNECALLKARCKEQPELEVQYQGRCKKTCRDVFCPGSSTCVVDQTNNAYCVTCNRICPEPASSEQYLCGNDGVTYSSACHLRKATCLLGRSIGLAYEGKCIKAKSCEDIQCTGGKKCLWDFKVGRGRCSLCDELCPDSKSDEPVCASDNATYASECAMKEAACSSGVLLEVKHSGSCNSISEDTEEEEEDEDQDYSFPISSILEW
- TEST NAME: follistatin binders on small-molecule microarrays, primary screen, biochemical, small-molecule microarray, 635/667 nm fluorescence (AID 1132)
- TEST SETTINGS: FST binding, 635 nm fluorescence, higher = more signal
Our labelling divides records by composite z-score into ranges: class 0 = under 0.3, class 1 = from 0.3 up to 1, class 2 = 1 and over

{"COMPOUND": "C=CC[C@]1(C(=O)N(C)C)N=C(c2ccc(OCCCO)cc2)O[C@H]1c1ccccc1N=[N+]=[N-]", "DISCRETE LABEL": "class 1"}
{"COMPOUND": "Cc1ccc(C(C)CC(O)C2C=CC3C(=O)N(c4ccccc4)C(=O)C3N2Nc2ccc(C(C)C)cc2)o1 (stereo not drawn)", "DISCRETE LABEL": "class 1"}
{"COMPOUND": "CN(C)CCCCNC(=O)[C@H]1C[C@H]2C(=O)N[C@@H](CCCCN(C)C)C(=O)N2[C@H]1c1cccc(OCCO)c1", "DISCRETE LABEL": "class 2"}
{"COMPOUND": "CCOC(=O)C[C@H]1[C@H](OC(=O)c2ccc(-c3ccccc3)cc2)[C@@H](NC(=O)c2ccc3ccccc3n2)c2cc(OCCCO)ccc2N1C(=O)c1ccccc1", "DISCRETE LABEL": "class 1"}

## Task Please classify: `CCCC=C(CCC)[C@@H](NP(=O)(c1ccccc1)c1ccccc1)c1ccc(C(F)(F)F)cc1`
## Result class 0

## Task Please classify: `COCCOC(=O)N1C(=O)[C@@]2(c3cc(C#Cc4ccc(OC)cc4)ccc31)[C@H](C(=O)N1CCCCCCC1)[C@H]1C(=O)O[C@H](c3ccccc3)[C@H](c3ccccc3)N1[C@@H]2c1ccc(O)cc1`
## Result class 2

## Task Please classify: `C=CCNC(=O)[C@@H]1[C@H]2C(=O)O[C@H](c3ccccc3)[C@H](c3ccccc3)N2[C@H](c2ccc(OCCO)cc2)[C@@]12C(=O)N(C(=O)OCCOC)c1ccc(C#CC3=CCCCC3)cc12`
## Result class 2

## Task Please classify: O=C1OCCC=C[C@H]2OC34C=CCN(c5ccc(Cl)cc5)C(=O)[C@H]3N(CCCCCO)C(=O)[C@@H]4C12 (stereo partly drawn)
## Result class 0

## Task Please classify: `C=CC[C@H](OC(=O)Nc1ccc(OC)cc1)c1ccc(O)c2ccccc12`
## Result class 2

## Task Please classify: `NCCCCCNC(=O)[C@@H]1C[C@@H]2C(=O)N[C@@H](CCCCN)C(=O)N2[C@@H]1c1cccc(OCCO)c1`
## Result class 2

## Task Please classify: CN1C(=O)C2C=CC(C(O)C3CCCCC3)N(N3CCCCC3)C2C1=O (stereo not drawn)
## Result class 2

## Task Please classify: `CCOC(=O)C[C@H]1[C@H](OC(=O)c2ccccc2-c2ccccc2)[C@@H](NC(=O)CC(C)C)c2cc(OCCCO)ccc2N1C(=O)c1ccc2ccccc2n1`
## Result class 1

## Task Please classify: O=C1OCC=C[C@H]2OC34C=CCN(Cn5nnc6ccccc65)C(=O)[C@H]3N(CCCCCCO)C(=O)[C@@H]4[C@@H]12 (stereo partly drawn)
## Result class 0

## Task Please classify: `CN(C)CCCNC(=O)[C@@]1(C)c2ccccc2C(=O)N(Cc2cc(C(F)(F)F)cc(C(F)(F)F)c2)[C@H]1c1ccc(CO)cc1`
## Result class 0

## Task Please classify: `O=C1O[C@@H](c2ccccc2)[C@@H](c2ccccc2)N2[C@@H](c3ccccc3OCCO)[C@]3(C(=O)Nc4ccc(C#CCCO)cc43)[C@@H](C(=O)N3CCN(c4ncccn4)CC3)[C@H]12`
## Result class 1

## Task Please classify: `O=C(CS)NCCCCCCNC(=O)[C@H]1C[C@H]2C(=O)N[C@@H](Cc3ccccc3)C(=O)N2[C@H]1c1cccc(OCCO)c1`
## Result class 2

## Task Please classify: `CC(C)(C)OC(=O)CC[C@@]1(C(=O)O)N=C(c2ccc(OCCCO)cc2)O[C@@H]1c1ccccc1`
## Result class 0
